# target.under.test: human TAS2R4 (Homo sapiens, UniProt Q9NYW5)
# Construct: expressed in transfected cells; host or cells: HEK293T-Gα16gust44
# Sequence (Q9NYW5 whole entry): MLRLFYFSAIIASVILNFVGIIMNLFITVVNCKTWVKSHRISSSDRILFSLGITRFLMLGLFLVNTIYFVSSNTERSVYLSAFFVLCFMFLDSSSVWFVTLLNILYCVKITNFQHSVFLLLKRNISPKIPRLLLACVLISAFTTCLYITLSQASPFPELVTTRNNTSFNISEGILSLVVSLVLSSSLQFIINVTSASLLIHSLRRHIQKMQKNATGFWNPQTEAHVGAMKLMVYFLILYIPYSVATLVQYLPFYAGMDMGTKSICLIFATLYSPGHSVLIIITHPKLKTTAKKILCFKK
# test.summary: Calcium imaging assay (FLIPR), HEK293T-Gα16gust44 cells transfected with human TAS2R4
# Assay type: cell-based
# run.parameters: lowest concentration with significantly increased fluorescence vs empty vector (p < 0.01)
measured.attribute: Activation threshold concentration TAS2R4 (µM)
Express the result in µM but write the number alone.

>  <chemical.smiles>
C[C@H](CCC(=O)O)[C@H]1CC[C@H]2[C@@H]3[C@H](O)C[C@@H]4C[C@H](O)CC[C@]4(C)[C@H]3C[C@H](O)[C@]12C

>  <value.observed>
30

$$$$

Query: Quick check: Activation threshold concentration TAS2R4 of `C[C@H](CCC(=O)O)[C@H]1CC[C@H]2[C@@H]3CC[C@@H]4C[C@H](O)CC[C@]4(C)[C@H]3C[C@H](O)[C@]12C` ?
Response: 3

Query: Find the recorded Activation threshold concentration TAS2R4 belonging to `C[C@H](CCC(=O)O)[C@H]1CC[C@H]2[C@@H]3[C@@H](O)C[C@@H]4C[C@H](O)CC[C@]4(C)[C@H]3CC[C@]12C` and report it.
Response: 3

Query: Record request: Activation threshold concentration TAS2R4 value, item `C[C@H](CCC(=O)NCCS(=O)(=O)O)[C@H]1CC[C@H]2[C@@H]3CC[C@@H]4C[C@H](O)CC[C@]4(C)[C@H]3CC[C@]12C`
Response: 1

Query: Which Activation threshold concentration TAS2R4 value belongs to `C[C@H](CCC(=O)NCC(=O)O)[C@H]1CC[C@H]2[C@@H]3[C@H](O)C[C@@H]4C[C@H](O)CC[C@]4(C)[C@H]3C[C@H](O)[C@]12C` ?
Response: 30

Query: // query Activation threshold concentration TAS2R4 value for entry `C[C@H](CCC(=O)NCCS(=O)(=O)O)[C@H]1CC[C@H]2[C@@H]3[C@H](O)C[C@@H]4C[C@H](O)CC[C@]4(C)[C@H]3C[C@H](O)[C@]12C`
Response: 100

====

# target.under.test: human TAS2R1 (Homo sapiens)
# Construct: expressed in transfected cells; host or cells: HEK293T-Gα16gust44
# test.summary: Calcium imaging assay (FLIPR), HEK293T-Gα16gust44 cells transfected with human TAS2R1
# Type: cell-based
# run.parameters: Time 40.781 s
Reported RLU values follow for various molecules
Give the quantity in RLU, number only.

Take a look at these entries with their results.
>  <chemical.smiles>
C[C@H](CCC(=O)NCCS(=O)(=O)O)[C@H]1CC[C@H]2[C@@H]3CC[C@@H]4C[C@H](O)CC[C@]4(C)[C@H]3CC[C@]12C

>  <target.under.test>
human TAS2R1 (Homo sapiens)

>  <value.observed>
483.096

$$$$
>  <chemical.smiles>
C[C@H](CCC(=O)NCC(=O)O)[C@H]1CC[C@H]2[C@@H]3[C@H](O)C[C@@H]4C[C@H](O)CC[C@]4(C)[C@H]3C[C@H](O)[C@]12C

>  <target.under.test>
human TAS2R1 (Homo sapiens)

>  <value.observed>
488.749

$$$$
>  <chemical.smiles>
C[C@H](CCC(=O)O)[C@H]1CC[C@H]2[C@@H]3CC[C@@H]4C[C@H](O)CC[C@]4(C)[C@H]3C[C@H](O)[C@]12C

>  <target.under.test>
human TAS2R1 (Homo sapiens)

>  <value.observed>
331.471

$$$$

Alright, here's another molecule for you.
Query: Consider the molecule shown here: `C[C@H](CCC(=O)NCCS(=O)(=O)O)[C@H]1CC[C@H]2[C@@H]3[C@H](O)C[C@@H]4C[C@H](O)CC[C@]4(C)[C@H]3C[C@H](O)[C@]12C` What is its recorded RLU?
Response: 295.88

====

# target.under.test: human TAS2R1 (Homo sapiens)
# Construct: expressed in transfected cells; host or cells: HEK293T-Gα16gust44
# test.summary: Calcium imaging assay (FLIPR), HEK293T-Gα16gust44 cells transfected with human TAS2R1
# Format: cell-based
# run.parameters: Time 82.781 s
measured.attribute: RLU (RLU)
Write the value in RLU as a bare number.

# count of solved cases: 3
>  <chemical.smiles>
C[C@H](CCC(=O)NCCS(=O)(=O)O)[C@H]1CC[C@H]2[C@@H]3[C@H](O)C[C@@H]4C[C@H](O)CC[C@]4(C)[C@H]3C[C@H](O)[C@]12C

>  <RLU, RLU>
428.932

$$$$
>  <chemical.smiles>
C[C@H](CCC(=O)NCCS(=O)(=O)O)[C@H]1CC[C@H]2[C@@H]3CC[C@@H]4C[C@H](O)CC[C@]4(C)[C@H]3CC[C@]12C

>  <RLU, RLU>
719.776

$$$$
>  <chemical.smiles>
C[C@H](CCC(=O)NCC(=O)O)[C@H]1CC[C@H]2[C@@H]3[C@H](O)C[C@@H]4C[C@H](O)CC[C@]4(C)[C@H]3C[C@H](O)[C@]12C

>  <RLU, RLU>
588.632

$$$$

Please turn your attention to the following entry.
Query: human TAS2R1 (Homo sapiens) / RLU / `C[C@H](CCC(=O)O)[C@H]1CC[C@H]2[C@@H]3CC[C@@H]4C[C@H](O)CC[C@]4(C)[C@H]3C[C@H](O)[C@]12C` : value?
Response: 411.74

====

# target.under.test: human TAS2R1 (Homo sapiens, UniProt Q9NYW7)
# Construct: expressed in transfected cells; host or cells: HEK293T-Gα16gust44
# Sequence (Q9NYW7 1-299): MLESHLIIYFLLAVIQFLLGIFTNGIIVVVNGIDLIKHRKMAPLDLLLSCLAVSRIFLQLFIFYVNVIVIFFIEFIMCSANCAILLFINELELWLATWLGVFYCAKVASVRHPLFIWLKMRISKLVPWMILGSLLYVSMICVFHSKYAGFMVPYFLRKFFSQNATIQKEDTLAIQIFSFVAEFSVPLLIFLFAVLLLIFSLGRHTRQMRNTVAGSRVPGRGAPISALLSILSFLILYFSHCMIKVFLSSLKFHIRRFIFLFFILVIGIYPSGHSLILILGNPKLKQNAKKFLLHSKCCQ
# test.summary: Calcium imaging assay (FLIPR), HEK293T-Gα16gust44 cells transfected with human TAS2R1
# Format: cell-based
# run.parameters: Time 185.547 s
measured.attribute: RLU (RLU)
Give the quantity in RLU, number only.

>  <chemical.smiles>
C[C@H](CCC(=O)O)[C@H]1CC[C@H]2[C@@H]3CC[C@@H]4C[C@H](O)CC[C@]4(C)[C@H]3C[C@H](O)[C@]12C

>  <RLU, RLU>
253.1

$$$$

Query: Bench note: what RLU did `C[C@H](CCC(=O)NCCS(=O)(=O)O)[C@H]1CC[C@H]2[C@@H]3CC[C@@H]4C[C@H](O)CC[C@]4(C)[C@H]3CC[C@]12C` show?
Response: 105.562

Query: I am curious: what RLU value has been reported for `C[C@H](CCC(=O)NCC(=O)O)[C@H]1CC[C@H]2[C@@H]3[C@H](O)C[C@@H]4C[C@H](O)CC[C@]4(C)[C@H]3C[C@H](O)[C@]12C` ?
Response: 202.093

Query: Looking for the measured RLU of `C[C@H](CCC(=O)NCCS(=O)(=O)O)[C@H]1CC[C@H]2[C@@H]3[C@H](O)C[C@@H]4C[C@H](O)CC[C@]4(C)[C@H]3C[C@H](O)[C@]12C` , can you help?
Response: 123.705

====

# target.under.test: human TAS2R1 (Homo sapiens)
# Construct: expressed in transfected cells; host or cells: HEK293T-Gα16gust44
# Sequence (Q9NYW7 1-299): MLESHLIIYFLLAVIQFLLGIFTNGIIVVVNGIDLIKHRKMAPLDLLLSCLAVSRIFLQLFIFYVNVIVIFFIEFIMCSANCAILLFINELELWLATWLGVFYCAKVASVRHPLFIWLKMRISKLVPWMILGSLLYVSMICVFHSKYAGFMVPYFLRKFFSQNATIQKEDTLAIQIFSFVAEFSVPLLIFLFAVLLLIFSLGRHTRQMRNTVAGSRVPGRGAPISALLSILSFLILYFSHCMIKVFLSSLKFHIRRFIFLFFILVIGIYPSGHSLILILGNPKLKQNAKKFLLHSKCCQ
# test.summary: Calcium imaging assay (FLIPR), HEK293T-Gα16gust44 cells transfected with human TAS2R1
# Type: cell-based
# run.parameters: calcium trace, sheet TAS2R1; Time 335.547 s
measured.attribute: RLU (RLU)
Quick reminder: number only, in RLU, skip the unit.

>  <compound>
C[C@H](CCC(=O)O)[C@H]1CC[C@H]2[C@@H]3CC[C@@H]4C[C@H](O)CC[C@]4(C)[C@H]3C[C@H](O)[C@]12C [Deoxycholic Acid, deoxycholic acid]

>  <target.under.test>
human TAS2R1 (Homo sapiens)

>  <RLU / RLU>
144.9

$$$$
>  <compound>
C[C@H](CCC(=O)NCC(=O)O)[C@H]1CC[C@H]2[C@@H]3[C@H](O)C[C@@H]4C[C@H](O)CC[C@]4(C)[C@H]3C[C@H](O)[C@]12C [Glycocholic Acid, glycocholic acid]

>  <target.under.test>
human TAS2R1 (Homo sapiens)

>  <RLU / RLU>
47.1496

$$$$
>  <compound>
C[C@H](CCC(=O)NCCS(=O)(=O)O)[C@H]1CC[C@H]2[C@@H]3CC[C@@H]4C[C@H](O)CC[C@]4(C)[C@H]3CC[C@]12C [Taurolithocholic Acid, taurolithocholic acid]

>  <target.under.test>
human TAS2R1 (Homo sapiens)

>  <RLU / RLU>
-241.48

$$$$

Now consider a different compound.
Query: Lab note: need RLU for C[C@H](CCC(=O)NCCS(=O)(=O)O)[C@H]1CC[C@H]2[C@@H]3[C@H](O)C[C@@H]4C[C@H](O)CC[C@]4(C)[C@H]3C[C@H](O)[C@]12C [Taurocholic Acid, taurocholic acid] on human TAS2R1 (Homo sapiens), anyone have it?
Response: 11.3706
